TARGET_OR_TEST_SYSTEM: Androgen Receptor (Homo sapiens, UniProt P10275)
Construct: endogenous in cells; host or cells: VCaP cells
Sequence (P10275 whole entry): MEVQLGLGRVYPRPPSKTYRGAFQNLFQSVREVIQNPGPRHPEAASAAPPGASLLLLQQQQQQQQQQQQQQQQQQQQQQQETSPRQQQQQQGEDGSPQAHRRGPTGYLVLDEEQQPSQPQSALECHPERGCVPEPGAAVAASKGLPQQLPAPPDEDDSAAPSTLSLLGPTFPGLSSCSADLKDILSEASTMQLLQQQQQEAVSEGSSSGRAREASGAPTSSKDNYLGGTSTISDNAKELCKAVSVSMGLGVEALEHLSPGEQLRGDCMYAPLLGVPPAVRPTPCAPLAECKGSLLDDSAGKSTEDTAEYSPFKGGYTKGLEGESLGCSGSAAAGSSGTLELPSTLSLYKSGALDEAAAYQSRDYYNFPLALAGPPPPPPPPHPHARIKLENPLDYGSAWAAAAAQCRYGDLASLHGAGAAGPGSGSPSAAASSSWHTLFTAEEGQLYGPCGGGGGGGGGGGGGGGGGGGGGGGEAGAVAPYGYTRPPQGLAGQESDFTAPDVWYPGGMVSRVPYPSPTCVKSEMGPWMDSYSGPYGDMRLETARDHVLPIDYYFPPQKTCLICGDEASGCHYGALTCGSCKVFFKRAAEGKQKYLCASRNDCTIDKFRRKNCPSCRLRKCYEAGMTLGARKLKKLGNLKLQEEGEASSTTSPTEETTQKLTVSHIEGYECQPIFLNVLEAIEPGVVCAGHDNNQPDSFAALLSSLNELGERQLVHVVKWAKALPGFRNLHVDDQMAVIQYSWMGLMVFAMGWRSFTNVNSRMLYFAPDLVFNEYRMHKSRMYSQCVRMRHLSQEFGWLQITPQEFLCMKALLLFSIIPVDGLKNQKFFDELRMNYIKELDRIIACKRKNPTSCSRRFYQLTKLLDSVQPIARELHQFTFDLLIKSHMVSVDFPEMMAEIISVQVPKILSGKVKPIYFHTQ
TEST_SUMMARY: Androgen Receptor ELISA assay (PathScan AR ELISA) in VCaP cells: AR degradation, Dmax and DC50
Assay type: cell-based
SETUP_CONDITIONS: VCaP, VCaP cells; Table 34; read-out: VCaP Dmax (%)
OUTCOME_MEASURE: Dmax

molecule_smiles=CC(C)(C)[C@H](NC(=O)COc1ccc(OCCOc2ccc(N3C(=S)N(c4cnc(C#N)c(C(F)(F)F)c4)C(=O)C3(C)C)cc2)cc1)C(=O)N1C[C@H](O)C[C@H]1C(=O)NCc1ccc(-c2cnco2)cc1 measured_result="> 71%"

Lookup: Could you share what Dmax was measured for `Cc1ncoc1-c1ccc([C@H](C)NC(=O)[C@@H]2C[C@@H](O)CN2C(=O)[C@@H](NC(=O)COCCCCNc2ccc(-c3ccc(N4C(=S)N(c5cnc(C#N)c(C(F)(F)F)c5)C(=O)C4(C)C)cc3)cc2)C(C)(C)C)cc1` , tested on Androgen Receptor (Homo sapiens, UniProt P10275)?
Found: 51 to 70%

Lookup: Try this molecule next: `Cc1ncsc1-c1ccc(CNC(=O)[C@@H]2C[C@@H](O)CN2C(=O)[C@@H](NC(=O)CO[C@@H](C)c2ccc(Oc3ccc(C(=O)N[C@H]4C(C)(C)[C@H](Oc5ccc(C#N)c(Cl)c5)C4(C)C)cc3)cc2)C(C)(C)C)cc1`
Found: > 71%

Lookup: Try this molecule next: `Cc1ncoc1-c1ccc(CNC(=O)[C@@H]2C[C@@H](O)CN2C(=O)[C@@H](NC(=O)COCCCOc2ccc(Oc3ccc(N4C(=S)N(c5cnc(C#N)c(C(F)(F)F)c5)C(=O)C4(C)C)cc3)cc2)C(C)(C)C)cc1`
Found: > 71%

Lookup: Try this molecule next: `Cc1ncsc1-c1ccc(CNC(=O)[C@@H]2C[C@@H](O)CN2C(=O)[C@@H](NC(=O)COCCCCOc2ccc(Oc3ccc(N4C(=S)N(c5cnc(C#N)c(C(F)(F)F)c5)C(=O)C4(C)C)cc3)cc2)C(C)(C)C)cc1`
Found: > 71%

Lookup: Try this molecule next: `CC(C)(C)[C@H](NC(=O)COCCCCOc1ccc(C(=O)N[C@H]2C(C)(C)[C@H](Oc3ccc(C#N)c(Cl)c3)C2(C)C)cc1)C(=O)N1C[C@H](O)C[C@H]1C(=O)NCc1ccc(-c2ccccc2)cc1`
Found: 51 to 70%

Lookup: Try this molecule next: `COc1cc(N2C(=O)C(C)(C)N(c3ccc(OCCOc4ccc(OCC(=O)N[C@H](C(=O)N5C[C@H](O)C[C@H]5C(=O)NCc5ccc(-c6scnc6C)cc5)C(C)(C)C)cc4)c(F)c3)C2=S)ccc1C#N`
Found: 51 to 70%

Lookup: Try this molecule next: `Cc1ncsc1-c1ccc([C@H](C)NC(=O)[C@@H]2C[C@@H](O)CN2C(=O)[C@@H](NC(=O)COCC#CCOc2ccc(C(=O)N[C@H]3C(C)(C)[C@H](Oc4ccc(C#N)c(Cl)c4)C3(C)C)cc2)C(C)(C)C)cc1`
Found: > 71%

Lookup: Try this molecule next: `CCc1ncsc1-c1ccc(CNC(=O)[C@@H]2C[C@@H](O)CN2C(=O)[C@@H](NC(=O)COCCCCNc2ccc(C(=O)N[C@H]3C(C)(C)[C@H](Oc4ccc(C#N)c(Cl)c4)C3(C)C)cc2)C(C)(C)C)cc1`
Found: > 71%

Lookup: Try this molecule next: `Cc1ncsc1-c1ccc(CNC(=O)[C@@H]2C[C@@H](O)CN2C(=O)[C@@H](NC(=O)COCCCOc2ccc(C(=O)N[C@H]3C(C)(C)[C@H](Oc4ccc(C#N)c(Cl)c4)C3(C)C)cc2)C(C)(C)C)cc1`
Found: < 25%

Lookup: Try this molecule next: `Cc1ncsc1-c1ccc(CNC(=O)[C@@H]2C[C@@H](O)CN2C(=O)[C@@H](NC(=O)COCCC2CCN(c3ccc(C(=O)N[C@H]4C(C)(C)[C@H](Oc5ccc(C#N)c(Cl)c5)C4(C)C)cc3)CC2)C(C)(C)C)cc1`
Found: > 71%

Lookup: Try this molecule next: `Cc1ncoc1-c1ccc(CNC(=O)[C@@H]2C[C@@H](O)CN2C(=O)[C@@H](NC(=O)COCCCCOc2ccc(Oc3ccc(N4C(=S)N(c5cnc(C#N)c(C(F)(F)F)c5)C(=O)C4(C)C)cc3)cc2)C(C)(C)C)cc1`
Found: > 71%

Lookup: Try this molecule next: `CC(C)(C)[C@H](NC(=O)COCCCCCOCCn1cc(C(=O)N[C@H]2C(C)(C)[C@H](Oc3ccc(C#N)c(Cl)c3)C2(C)C)cn1)C(=O)N1C[C@H](O)C[C@H]1C(=O)NCc1ccc(-c2cncs2)cc1`
Found: > 71%

Lookup: Try this molecule next: `Cc1ncsc1-c1ccc(CNC(=O)[C@@H]2C[C@@H](O)CN2C(=O)[C@@H](NC(=O)COCCCNC(=O)c2ccc(C(=O)N[C@H]3C(C)(C)[C@H](Oc4ccc(C#N)c(Cl)c4)C3(C)C)cc2)C(C)(C)C)cc1`
Found: 51 to 70%

Lookup: Try this molecule next: `Cc1ncsc1-c1ccc(CNC(=O)[C@@H]2C[C@@H](O)CN2C(=O)[C@@H](NC(=O)COCCCCNc2ccc(C(=O)N[C@H]3C(C)(C)[C@H](Oc4ccc(C#N)c(Cl)c4)C3(C)C)cn2)C(C)(C)C)cc1`
Found: 26 to 50%

Lookup: Try this molecule next: `CC(C)(C)[C@H](NC(=O)COCCCCOCCn1cc(C(=O)N[C@H]2C(C)(C)[C@H](Oc3ccc(C#N)c(Cl)c3)C2(C)C)cn1)C(=O)N1C[C@H](O)C[C@H]1C(=O)NCc1ccc(-c2cncs2)cc1`
Found: 51 to 70%

Lookup: Try this molecule next: `Cc1ncsc1-c1ccc(CNC(=O)[C@@H]2C[C@@H](O)CN2C(=O)[C@@H](NC(=O)COc2ccccc2CCCOc2ccc(C(=O)N[C@H]3C(C)(C)[C@H](Oc4ccc(C#N)c(Cl)c4)C3(C)C)cc2)C(C)(C)C)cc1`
Found: > 71%

Where these numbers come from: patent US11427548B2
